Value source: ChEMBL document CHEMBL4350955

# ASSAY_TARGET: Arachidonate 5-lipoxygenase-activating protein (Homo sapiens, UniProt P20292)
# Sequence (P20292 whole entry): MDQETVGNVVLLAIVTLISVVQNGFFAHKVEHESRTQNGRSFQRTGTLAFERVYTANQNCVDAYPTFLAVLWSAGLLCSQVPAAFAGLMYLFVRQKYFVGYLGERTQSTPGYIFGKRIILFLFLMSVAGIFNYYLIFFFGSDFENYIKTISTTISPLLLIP
# PROTOCOL: Inhibition of [3H]MK0591 binding to human FLAP expressed in […] cell membranes measured after 60 to 80 mins by scintillation counting method
READOUT_LABEL: IC50 (nM)

Look over these answered cases.
IN: Could you share which IC50 value was measured for `O=C(NCCc1ccccn1)[C@@H]1CCCC[C@H]1C(=O)c1ccc(-c2cc[nH]n2)cc1` ?
OUT: 251

IN: Could you share which IC50 value was measured for CC(C)(O)CNC(=O)c1cnc(NC(=O)[C@@H]2CCCC[C@H]2C(=O)c2ccc(-c3cc[nH]n3)cc2)cn1 (racemic) ?
OUT: 15.8

IN: Could you share which IC50 value was measured for Cc1nn(C)cc1NC(=O)[C@@H]1[C@H]2CC[C@H](CC2)[C@H]1C(=O)c1ccc(-c2cc[nH]n2)cc1F (racemic) ?
OUT: 63.1

IN: Could you share which IC50 value was measured for `Cn1ncc(NC(=O)[C@@H]2CCCC[C@H]2C(=O)c2ccc(-c3cc[nH]n3)cc2)c1C(F)(F)F` ?
OUT: 39.8

IN: Could you share which IC50 value was measured for `Cc1cc(-c2ccc3c([C@@H]4C[C@H]5C[C@H]5C[C@H]4C(=O)Nc4cn(C)nc4C(N)=O)noc3c2)n[nH]1` ?
OUT: 39.8

(I) Cn1ncc(NC(=O)[C@@H]2C[C@@H]3C[C@@H]3C[C@H]2C(=O)c2ccc(-c3cc[nH]n3)cc2)c1C(F)(F)F
(II) Cc1nn(C)cc1NC(=O)[C@@H]1CCCC[C@H]1C(=O)c1ccc(-c2cc[nH]n2)cc1F (racemic)
IN: Determine, for I and II , which has the greater value of IC50. Label of pick, please.
OUT: II
(II: 126 nM, I: 12.6 nM)

====

# ASSAY_TARGET: Arachidonate 5-lipoxygenase-activating protein (Homo sapiens, UniProt P20292)
# Sequence (P20292 whole entry): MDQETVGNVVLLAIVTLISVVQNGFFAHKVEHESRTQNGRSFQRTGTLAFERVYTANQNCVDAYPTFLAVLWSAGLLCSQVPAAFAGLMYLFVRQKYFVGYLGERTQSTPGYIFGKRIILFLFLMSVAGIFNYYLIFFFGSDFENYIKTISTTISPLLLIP
# PROTOCOL: Inhibition of [3H]MK0591 binding to human FLAP expressed in […] cell membranes measured after 60 to 80 mins by scintillation counting method
pIC50: −log10 of the molar value.
READOUT_LABEL: pIC50

Look over these answered cases.
IN: Could you share which pIC50 value was measured for Cc1c[nH]nc1-c1ccc(C(=O)[C@@H]2CCCC[C@H]2C(=O)Nc2cn(C)nc2C)cc1 (racemic) ?
OUT: 6.00

IN: Could you share which pIC50 value was measured for Cc1nn(C)cc1NC(=O)[C@@H]1CCCC[C@H]1C(=O)c1ccc(-c2ccccn2)cc1 (racemic) ?
OUT: 6.30

IN: Could you share which pIC50 value was measured for `Cc1cc(-c2ccc(C(=O)[C@@H]3CCCC[C@H]3C(=O)Nc3cn(C)nc3C)cc2)n[nH]1` ?
OUT: 7.20

(1) Cc1nn(C)cc1NC(=O)[C@@H]1CCCC[C@H]1C(=O)c1ccc(-c2ccc[nH]2)cc1 (racemic)
(2) Cn1cc(NC(=O)[C@@H]2CCCC[C@H]2C(=O)c2ccc(-c3cc[nH]n3)cc2)c(C(F)(F)F)n1
(3) Cc1nn(C)cc1NC(=O)[C@@H]1CCCC[C@H]1C(=O)c1ccc(-c2ccnn2C)cc1 (racemic)
(4) Cc1cc(-c2ccc(C(=O)[C@@H]3CCCC[C@H]3C(=O)Nc3cn(C)nc3C(F)F)cc2)n[nH]1
IN: Which order do these items take when sorted by rising pIC50? List them. Please list the labels in the order you were asked to rank them.
OUT: 3, 1, 2, 4

(P) O=C(Nc1cnn2cccnc12)[C@@H]1CCCC[C@H]1C(=O)c1ccc(-c2cc[nH]n2)cc1
(Q) Cc1cc(-c2ccc3c([C@@H]4CCCC[C@H]4C(=O)Nc4cn(C)nc4C(N)=O)noc3c2)n[nH]1
IN: Determine, for P and Q , which has the greater value of pIC50. Label of pick, please.
OUT: P
(P: 7.50, Q: 7.10)

(P) Cc1nn(C)cc1N(C)C(=O)[C@@H]1CCCC[C@H]1C(=O)c1ccc(-c2cc[nH]n2)cc1
(Q) COc1cc(NC(=O)[C@@H]2CCCC[C@H]2C(=O)c2ccc(-c3cc[nH]n3)cc2)ncn1
(R) Cc1cc(-c2cc[nH]n2)ccc1C(=O)[C@@H]1CCCC[C@H]1C(=O)Nc1cn(C)nc1C (racemic)
(S) Cc1nn(C)cc1NC(=O)[C@@H]1CCCC[C@H]1C(=O)c1ccc(-c2cc[nH]n2)cc1 (racemic)
(T) CC(=O)c1cccc(-c2ccc(C(=O)[C@@H]3CCCC[C@H]3C(=O)Nc3c(C)noc3C)cc2)c1 (racemic)
IN: Which order do these items take when sorted by rising pIC50? List them. Please list the labels in the order you were asked to rank them.
OUT: T, R, P, S, Q

====

# PROTOCOL: physchem
# CONDITION_CONTEXT: phosphate buffer, pH 7.4
# Description: Aqueous solubility in pH 7.4 phosphate buffer after 24 hrs by UPLC/MS/MS analysis
READOUT_LABEL: solubility at 24 h (µM)

Look over these answered cases.
IN: Could you share which solubility at 24 h value was measured for Cc1nn(C)cc1NC(=O)[C@@H]1CCCC[C@H]1C(=O)c1ccc(-c2cc[nH]n2)cc1F (racemic) ?
OUT: 500

IN: Could you share which solubility at 24 h value was measured for `Cc1cc(-c2ccc3c([C@@H]4C[C@H]5C[C@H]5C[C@H]4C(=O)Nc4cn(C)nc4C(N)=O)noc3c2)n[nH]1` ?
OUT: 12

IN: Could you share which solubility at 24 h value was measured for CC(C)(O)CNC(=O)c1cnc(NC(=O)[C@@H]2CCCC[C@H]2C(=O)c2ccc(-c3cc[nH]n3)cc2)cn1 (racemic) ?
OUT: 111

(P) Cc1cc(-c2ccc(C(=O)[C@@H]3CCCC[C@H]3C(=O)Nc3cn(C)nc3C(N)=O)cc2)n[nH]1
(Q) Cc1nn(C)cc1NC(=O)[C@@H]1CCCC[C@H]1C(=O)c1ccc(-c2cc[nH]n2)cc1 (racemic)
IN: Determine, for P and Q , which has the greater value of solubility at 24 h. Label of pick, please.
OUT: Q
(Q: 92 µM, P: 60 µM)

====

# PROTOCOL: Distribution coefficient between octanol and sodium phosphate buffer, logD of the compound in pH 7.4 buffer by LC-MS/MS-based shake flask method
READOUT_LABEL: logD

IN: Could you share which logD value was measured for Cc1cnn(-c2ccc(C(=O)[C@@H]3CCCC[C@H]3C(=O)Nc3cccc(C(N)=O)c3)cc2)c1 (racemic) ?
OUT: 3.6

IN: Could you share which logD value was measured for Cc1nn(C)cc1NC(=O)[C@@H]1CCCC[C@H]1C(=O)c1ccc(-c2ccc[nH]2)cc1 (racemic) ?
OUT: 3.1

IN: Could you share which logD value was measured for `Cc1cc(-c2ccc(C(=O)[C@@H]3CCCC[C@H]3C(=O)Nc3cn(C)nc3C)cc2)n[nH]1` ?
OUT: 3

IN: Could you share which logD value was measured for `COc1cc(NC(=O)[C@@H]2CCCC[C@H]2C(=O)c2ccc(-c3cc[nH]n3)cc2)ncn1` ?
OUT: 3.9

IN: Could you share which logD value was measured for Cc1nn(C)cc1NC(=O)[C@@H]1CCCC[C@H]1C(=O)c1ccc(-c2ccnn2C)cc1 (racemic) ?
OUT: 2.5

IN: Could you share which logD value was measured for `Cc1cc(-c2ccc(C(=O)[C@@H]3CCCC[C@H]3C(=O)Nc3cn(C)nc3C(F)F)cc2)n[nH]1` ?
OUT: 3.5

IN: Could you share which logD value was measured for CC(=O)c1cccc(-c2ccc(C(=O)[C@@H]3CCCC[C@H]3C(=O)Nc3c(C)noc3C)cc2)c1 (racemic) ?
OUT: 3.9

IN: Could you share which logD value was measured for `Cc1cc(-c2ccc(C(=O)[C@@H]3CCCC[C@H]3C(=O)Nc3cn(C)nc3C(N)=O)cc2)n[nH]1` ?
OUT: 3.1

====

Documented pIC50 across a set of compounds
# ASSAY_TARGET: CYP450 (Homo sapiens, UniProt P04798+P05177+P05181+P08684+P10632+P10635+P11509+P11712+P13584+P20813+P20815+P20853+P24462+P24903+P33260+P33261+P51589+P78329+P98187+Q02928+Q08477+Q16678+Q16696+Q5TCH4+Q6VVX0+Q7Z449+Q8TAV3+Q96SQ9+Q9HB55)
# PROTOCOL: Inhibition of CYP450 assessed as maximum reduction in metabolite formation using coumarin based substrate by fluorescence assay
# Format: ADME, protein assay
# CONDITION_CONTEXT: probe coumarin based substrate
pIC50: −log10 of the molar value.

IN: Could you share which pIC50 value was measured for Cc1nn(C)cc1NC(=O)[C@@H]1CCCC[C@H]1C(=O)c1ccc(-c2cc[nH]n2)cc1 (racemic) ?
OUT: < 4.70

IN: Could you share which pIC50 value was measured for `O=C(Nc1cnn2cccnc12)[C@@H]1CCCC[C@H]1C(=O)c1ccc(-c2cc[nH]n2)cc1` ?
OUT: < 4.70

IN: Could you share which pIC50 value was measured for `Cc1cc(-c2ccc(C(=O)[C@@H]3CCCC[C@H]3C(=O)Nc3cn(C)nc3C)cc2)n[nH]1` ?
OUT: < 4.60

Next:
IN: Could you share which pIC50 value was measured for Cc1nn(C)cc1NC(=O)[C@@H]1CCCC[C@H]1C(=O)c1ccc(-c2cc[nH]n2)cc1F (racemic) ?
OUT: < 4.70
